# Test system: HL-60(TB) leukemia
# protocol: NCI tumour cell line growth inhibition, 48 h
reported metric: TGI

In [3]: df
Out[3]:
                                   molecule  recorded_measurement
0  C=CCN1CC2CON(C(=O)C(OC)(c3ccccc3)C(F)(F)F)C2C1C(C)C (stereo not drawn)            23.3 µg/mL
1  C=C(C)[C@@]1(O[Si](C)(C)C)CCCC[C@@H]1CC(Sc1ccccc1)Sc1ccccc1               40.8 µM
2  O=C(Nc1ccc(-n2cc(-c3ccncc3)c(-c3ccc(O)c(Cl)c3)n2)cc1)Nc1cccc(Cl)c1Cl             > 32.5 µM
